# reported % UTC (Yap1 mRNA); entries follow
# Tested on: Yap1 mRNA
# Assay Name: Dose-dependent inhibition of human Yap1 in SNU-449 cells (Example 9, RTS36584)
# Type: cell-based
# Reported Conditions: 31.3 nM, free uptake, approximately 48 hours
Strand notation (5' to 3'): a small letter for the sugar, then the base; units joined by * are phosphorothioate-linked, units joined directly phosphodiester-linked; [ ] holds rarer units or linkages, { } end groups; capitals alone tell only the bases. e = 2'-O-(2-methoxyethyl) (MOE); k = constrained ethyl (cEt); [5mC] = 5-methylcytosine; d = 2'-deoxy (DNA); m = 2'-O-methyl
Entry rule: numbers only, all in % UTC.

-- ask What does the data say about its % UTC (Yap1 mRNA)? Entry: 1198504 (kT*k[5mC]*dA*dG*dA*dT*dT*dT*dA*dG*dG*eA*kT*eG*k[5mC]*eA; antisense) [compound 1198504]
-- reply 77

Further cases:
-- ask What does the data say about its % UTC (Yap1 mRNA)? Entry: 1198818 (kT*kA*dT*dT*dA*dG*dA*dG*dT*dA*dT*kG*eT*kG*eG*k[5mC]) [compound 1198818]
-- reply 68

-- ask What does the data say about its % UTC (Yap1 mRNA)? Entry: 1198287 (kA*kA*kA*dT*dT*dG*dT*d[5mC]*dT*d[5mC]*dA*dT*kG*e[5mC]*k[5mC]*eT; antisense) [compound 1198287]
-- reply 95

-- ask What does the data say about its % UTC (Yap1 mRNA)? Entry: 1200797 (kA*kT*kT*dA*dG*mA*dG*dT*dA*dT*dG*dT*dG*kG*k[5mC]*kA; antisense) [compound 1200797]
-- reply 84

-- ask What does the data say about its % UTC (Yap1 mRNA)? Entry: 1198365 (k[5mC]*kT*kA*dA*dG*dT*dA*dA*dG*dG*dT*dT*kT*e[5mC]*k[5mC]*e[5mC]; antisense) [compound 1198365]
-- reply 59

-- ask What does the data say about its % UTC (Yap1 mRNA)? Entry: 1198424 (k[5mC]*dT*d[5mC]*dT*dT*dA*dT*dA*dT*dG*dG*kT*eT*kT*eT*kG; antisense) [compound 1198424]
-- reply 64
